- test.protocol: melting temperature; fluorescence melt of hairpins on a sequencing array, two-state fit, raised by 9.35 °C to match UV melts
- experimental.parameters: sodium 0.088 M
Tm below 40 °C gives False; Tm at or above it gives True.

{"chain.sequence": "AAACGGAAACGTTT (((((....)))))", "assigned.class": "True"}
{"chain.sequence": "GCGCACGAAAGTGACGC ((((((....))).)))", "assigned.class": "True"}
{"chain.sequence": "GATCATACATATGATC ((((((....))))))", "assigned.class": "True"}
{"chain.sequence": "GCACAGCGAAAGCTCCGC ((..(((....)))..))", "assigned.class": "False"}
{"chain.sequence": "GAGCCTGGAAACAGACTC (((.(((....))).)))", "assigned.class": "True"}
{"chain.sequence": "GAATAGACGAAAGTCTTC (((..(((....))))))", "assigned.class": "False"}

Each recorded value in this set is attributed to the array DNA melting data of Ke et al. (doi:10.1101/2024.01.08.574731).
